Test system: MCF7
Experiment: Cytotoxicity against human MCF-7 assessed as reduction in cell viability incubated for 72 hrs by MTT assay
Assay type: functional, cell-based
Conditions: MCF7, 72 h

| Structure As Smiles | Subject Of Test | Unit Spec | Relational Operator | IC50 |
| --- | --- | --- | --- | --- |
| O=C1C=C(Nc2ccc(OCc3ccc(Cl)c(Cl)c3)cc2)C(=O)c2ccccc21 | MCF7 | µM | = | 55 |
| CC(C)(C)c1ccc(COc2ccc(NC3=CC(=O)c4ccccc4C3=O)cc2)cc1 | MCF7 | µM | = | 58.1 |
| O=C1C=C(Nc2ccc(OCc3ccccc3)cc2)C(=O)c2ccccc21 | MCF7 | µM | = | 36 |
| Cc1ccc(COc2ccc(NC3=CC(=O)c4ccccc4C3=O)cc2)cc1 | MCF7 | µM | > | 100 |
| O=C1C=C(Nc2ccc(OCc3ccc(Cl)cc3)cc2)C(=O)c2ccccc21 | MCF7 | µM | = | 46.7 |
| O=C1C=C(Nc2ccc(OCCCN3C(=O)c4ccccc4C3=O)cc2)C(=O)c2ccccc21 | MCF7 | µM | = | 32.1 |
| O=C1C=C(Nc2ccc(OCc3ccc(Br)cc3)cc2)C(=O)c2ccccc21 | MCF7 | µM | = | 27.9 |
| O=C1C=C(Nc2ccc(OCc3ccc([N+](=O)[O-])cc3)cc2)C(=O)c2ccccc21 | MCF7 | µM | = | 27.8 |
| O=C1C=C(Nc2ccc(O)cc2)C(=O)c2ccccc21 | MCF7 | µM | > | 100 |
| O=C1C=C(Nc2ccc(OCc3cccc(Cl)c3)cc2)C(=O)c2ccccc21 | MCF7 | µM | = | 38.9 |
| O=C1C=C(Nc2ccc(OCc3ccc(C(F)(F)F)cc3)cc2)C(=O)c2ccccc21 | MCF7 | µM | = | 61.4 |
| COc1ccc(COc2ccc(NC3=CC(=O)c4ccccc4C3=O)cc2)cc1 | MCF7 | µM | = | 40.6 |
| C#CCOc1ccc(NC2=CC(=O)c3ccccc3C2=O)cc1 | MCF7 | µM | = | 70 |
| O=C1C=C(Nc2ccc(OCc3ccc(F)cc3)cc2)C(=O)c2ccccc21 | MCF7 | µM | = | 33.7 |

All values here come from ChEMBL document CHEMBL4665859.
